# Test Name: Effect of different intervals between administration and a meal on pharmacokinetic parameters (three-period crossover, single oral dose)
# Format: in vivo, human
# Experimental Context: male, human, plasma, po, 7.5 mg, single oral 7.5 mg; Group B, meal 1 h after administration; n 14; mixed-effects ANOVA; read-out: AUC0-t GeoLSM (geometric least squares mean)
# Method: Embodiment 1: Study on an effect of different intervals between the administration and a meal on pharmacokinetic parameters of a compound represented by Formula I […] The high-fat meal: calories: 800 to 1,000 kcal, composed of 150 kcal of protein, 250 kcal of carbohydrates and 500 to 600 kcal of fats, wherein about 50% of the calories come from the fats. […] An effect of food on the medicine was analyzed by sampling blood at fixed time points before and after administration and measuring vital signs. […]
Experimental Readout: AUC(0-t) (ng·h/mL)
Provide only the numeric value, understood in ng·h/mL.

Input line: Would you mind telling me what AUC(0-t) value was observed for `CC1=NN(c2ccc3c(c2)CCCC3)C(=O)/C1=N\Nc1cccc(-c2ccc(C(=O)O)o2)c1O` ?
Output line: 203

====

# Test Name: Effect of different intervals between administration and a meal on pharmacokinetic parameters (three-period crossover, single oral dose)
# Format: in vivo, human
# Experimental Context: male, human, plasma, po, 7.5 mg, single oral 7.5 mg; Group B, high-fat meal 1 h after administration; N = 14; read-out: t1/2 Mean SD (converted)
Experimental Readout: half-life (h)
Provide only the numeric value, understood in h.

Input line: Would you mind telling me what half-life value was observed for CC1=NN(c2ccc3c(c2)CCCC3)C(=O)/C1=N\Nc1cccc(-c2ccc(C(=O)O)o2)c1O [compound represented by Formula I] ?
Output line: 13.1

====

# Test Name: Effect of different intervals between administration and a meal on pharmacokinetic parameters (three-period crossover, single oral dose)
# Assay type: in vivo, human
# Experimental Context: male, human, plasma, po, 7.5 mg, single oral 7.5 mg; Group B, high-fat meal 1 h after administration; N = 14; read-out: Vz/F Geomean (% CVb)
# Procedure: Embodiment 1: Study on an effect of different intervals between the administration and a meal on pharmacokinetic parameters of a compound represented by Formula I […] The high-fat meal: calories: 800 to 1,000 kcal, composed of 150 kcal of protein, 250 kcal of carbohydrates and 500 to 600 kcal of fats, wherein about 50% of the calories come from the fats. […] An effect of food on the medicine was analyzed by sampling blood at fixed time points before and after administration and measuring vital signs. […]
Experimental Readout: Vd/F (L)
Provide only the numeric value, understood in L.

Input line: Would you mind telling me what Vd/F value was observed for `CC1=NN(c2ccc3c(c2)CCCC3)C(=O)/C1=N\Nc1cccc(-c2ccc(C(=O)O)o2)c1O` ?
Output line: 531

====

# Test Name: Effect of different intervals between administration and a meal on pharmacokinetic parameters (three-period crossover, single oral dose)
# Format: in vivo, human
# Experimental Context: male, human, plasma, po, 7.5 mg, single oral 7.5 mg; Group C, high-fat meal 2 h after administration; N = 14; read-out: Cmax Geomean (% CVb)
Experimental Readout: Cmax (ng/mL)
Provide only the numeric value, understood in ng/mL.

Input line: Would you mind telling me what Cmax value was observed for CC1=NN(c2ccc3c(c2)CCCC3)C(=O)/C1=N\Nc1cccc(-c2ccc(C(=O)O)o2)c1O [compound represented by Formula I] ?
Output line: 19.6

====

# Test Name: Effect of different intervals between administration and a meal on pharmacokinetic parameters (three-period crossover, single oral dose)
# Format: in vivo, human
# Experimental Context: male, human, plasma, po, 7.5 mg, single oral 7.5 mg; Group C, high-fat meal 2 h after administration; N = 14; read-out: MRT Geomean (% CVb)
Experimental Readout: MRT (h)
Provide only the numeric value, understood in h.

Input line: Would you mind telling me what MRT value was observed for `CC1=NN(c2ccc3c(c2)CCCC3)C(=O)/C1=N\Nc1cccc(-c2ccc(C(=O)O)o2)c1O` ?
Output line: 21.4

====

# Test Name: Effect of different intervals between administration and a meal on pharmacokinetic parameters (three-period crossover, single oral dose)
# Assay type: in vivo, human
# Experimental Context: male, human, plasma, po, 7.5 mg, single oral 7.5 mg; Group A, no food after administration; n 15; mixed-effects ANOVA; read-out: Cmax GeoLSM (geometric least squares mean)
# Description: Embodiment 1: Study on an effect of different intervals between the administration and a meal on pharmacokinetic parameters of a compound represented by Formula I […] The high-fat meal: calories: 800 to 1,000 kcal, composed of 150 kcal of protein, 250 kcal of carbohydrates and 500 to 600 kcal of fats, wherein about 50% of the calories come from the fats. […] An effect of food on the medicine was analyzed by sampling blood at fixed time points before and after administration and measuring vital signs. […]
Experimental Readout: Cmax
Note to self: number, then unit, no commentary.

Input line: Would you mind telling me what Cmax value was observed for CC1=NN(c2ccc3c(c2)CCCC3)C(=O)/C1=N\Nc1cccc(-c2ccc(C(=O)O)o2)c1O [compound represented by Formula I] ?
Output line: 35.1 ng/mL

====

# Test Name: Effect of different intervals between administration and a meal on pharmacokinetic parameters (three-period crossover, single oral dose)
# Type: in vivo, human
# Experimental Context: male, human, plasma, po, 7.5 mg, single oral 7.5 mg; Group B, high-fat meal 1 h after administration; N = 14; read-out: Cmax Geomean (% CVb)
# Method: Embodiment 1: Study on an effect of different intervals between the administration and a meal on pharmacokinetic parameters of a compound represented by Formula I […] The high-fat meal: calories: 800 to 1,000 kcal, composed of 150 kcal of protein, 250 kcal of carbohydrates and 500 to 600 kcal of fats, wherein about 50% of the calories come from the fats. […] An effect of food on the medicine was analyzed by sampling blood at fixed time points before and after administration and measuring vital signs. […]
Experimental Readout: Cmax (ng/mL)
Provide only the numeric value, understood in ng/mL.

Input line: Would you mind telling me what Cmax value was observed for `CC1=NN(c2ccc3c(c2)CCCC3)C(=O)/C1=N\Nc1cccc(-c2ccc(C(=O)O)o2)c1O` ?
Output line: 15.4

====

# Test Name: Effect of different intervals between administration and a meal on pharmacokinetic parameters (three-period crossover, single oral dose)
# Type: in vivo, human
# Experimental Context: male, human, plasma, po, 7.5 mg, single oral 7.5 mg; Group C, high-fat meal 2 h after administration; N = 14; read-out: AUC0-t Mean SD
Experimental Readout: AUC(0-t) (ng·h/mL)
Provide only the numeric value, understood in ng·h/mL.

Input line: Would you mind telling me what AUC(0-t) value was observed for `CC1=NN(c2ccc3c(c2)CCCC3)C(=O)/C1=N\Nc1cccc(-c2ccc(C(=O)O)o2)c1O` ?
Output line: 547

====

# Test Name: Effect of different intervals between administration and a meal on pharmacokinetic parameters (three-period crossover, single oral dose)
# Type: in vivo, human
# Experimental Context: male, human, plasma, po, 7.5 mg, single oral 7.5 mg; Group B, high-fat and high-calorie standard meal 1 h after administration; N = 14; read-out: Tmax Median
Experimental Readout: Tmax (h)
Provide only the numeric value, understood in h.

Input line: Would you mind telling me what Tmax value was observed for `CC1=NN(c2ccc3c(c2)CCCC3)C(=O)/C1=N\Nc1cccc(-c2ccc(C(=O)O)o2)c1O` ?
Output line: 2

====

# Test Name: Effect of different intervals between administration and a meal on pharmacokinetic parameters (three-period crossover, single oral dose)
# Format: in vivo, human
# Experimental Context: male, human, plasma, po, 7.5 mg, single oral 7.5 mg; Group A, without a breakfast after administration; N = 15; read-out: Cmax Geomean (% CVb)
Experimental Readout: Cmax (ng/mL)
Provide only the numeric value, understood in ng/mL.

Input line: Would you mind telling me what Cmax value was observed for CC1=NN(c2ccc3c(c2)CCCC3)C(=O)/C1=N\Nc1cccc(-c2ccc(C(=O)O)o2)c1O [compound represented by Formula I] ?
Output line: 35.1

====

# Test Name: Effect of different intervals between administration and a meal on pharmacokinetic parameters (three-period crossover, single oral dose)
# Format: in vivo, human
# Experimental Context: male, human, plasma, po, 7.5 mg, single oral 7.5 mg; Group C, meal 2 h after administration; n 14; mixed-effects ANOVA; read-out: AUC0-t GeoLSM (geometric least squares mean)
Experimental Readout: AUC(0-t) (ng·h/mL)
Provide only the numeric value, understood in ng·h/mL.

Input line: Would you mind telling me what AUC(0-t) value was observed for `CC1=NN(c2ccc3c(c2)CCCC3)C(=O)/C1=N\Nc1cccc(-c2ccc(C(=O)O)o2)c1O` ?
Output line: 307

====

# Test Name: Effect of different intervals between administration and a meal on pharmacokinetic parameters (three-period crossover, single oral dose)
# Type: in vivo, human
# Experimental Context: male, human, plasma, po, 7.5 mg, single oral 7.5 mg; Group B, high-fat meal 1 h after administration; N = 14; read-out: Cmax Mean SD
# Experimental: Embodiment 1: Study on an effect of different intervals between the administration and a meal on pharmacokinetic parameters of a compound represented by Formula I […] The high-fat meal: calories: 800 to 1,000 kcal, composed of 150 kcal of protein, 250 kcal of carbohydrates and 500 to 600 kcal of fats, wherein about 50% of the calories come from the fats. […] An effect of food on the medicine was analyzed by sampling blood at fixed time points before and after administration and measuring vital signs. […]
Experimental Readout: Cmax (ng/mL)
Provide only the numeric value, understood in ng/mL.

Input line: Would you mind telling me what Cmax value was observed for CC1=NN(c2ccc3c(c2)CCCC3)C(=O)/C1=N\Nc1cccc(-c2ccc(C(=O)O)o2)c1O [compound represented by Formula I] ?
Output line: 21.1
